- target-entity: Uracil-DNA glycosylase (Homo sapiens) (UniProt P13051);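 also: UNG excision on a quenched double-stranded DNA oligo probe, with APE1 added for strand incision and turnover, read as fluorescence at 594 nm as strands separate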
- Sequence (P13051 whole entry): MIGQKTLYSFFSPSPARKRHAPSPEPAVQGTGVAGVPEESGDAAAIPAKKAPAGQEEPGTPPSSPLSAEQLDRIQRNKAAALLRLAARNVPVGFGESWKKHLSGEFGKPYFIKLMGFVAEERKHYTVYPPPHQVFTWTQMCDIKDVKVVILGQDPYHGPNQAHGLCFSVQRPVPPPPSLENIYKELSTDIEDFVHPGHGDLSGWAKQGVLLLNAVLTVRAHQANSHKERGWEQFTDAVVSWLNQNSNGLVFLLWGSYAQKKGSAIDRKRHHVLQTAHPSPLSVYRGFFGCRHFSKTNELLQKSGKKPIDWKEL
- condition-context: Compound Concentration 10.0 uM, Hit No
- Description: Inhibition of UNG by quantifying inhibition of UNG-mediated cleavage and dissociation of quenched duplex DNA oligonucleotides, measured as fluorescence at 594 nm. To generate a functional strand incision and increase turn-over this assay is coupled to APE1.
readout-label: inhibition (%)
Report as a plain number; the unit % is understood.

molecule	inhibition, %
CN(C)CCN(Cc1ccc(-c2ccc(CNCCc3ccccc3)cc2)cc1)C(=O)CCC1CCCC1	1.96

Task item: Quick one: inhibition of N#Cc1ccc(Cn2ccc(NC(=O)Cc3ccc(C4(C(F)(F)F)CC4)cc3)n2)nc1 ?
Reply: -0.478

Task item: Quick one: inhibition of CNc1nc(Nc2ccccc2)nc(OC(C(F)(F)F)C(F)(F)F)n1 ?
Reply: 1.86

Task item: Quick one: inhibition of CCc1cc(C(C)=O)c(O)cc1OCCCCCC(C)(C)c1nn[nH]n1 ?
Reply: -4.34

Task item: Quick one: inhibition of O=C(Nc1ccc(C(O)(C(F)(F)F)C(F)(F)F)cc1)c1ccc(C(F)(F)F)cc1 ?
Reply: 11.1

Task item: Quick one: inhibition of Cc1cc([C@@H](C)Nc2cccc(-c3cc(C)c(C(=O)N[C@@H](C)C(=O)O)c(C)c3)c2)ccc1Cl ?
Reply: -6.25

----------
- target-entity: N-glycosylase/DNA lyase (Homo sapiens);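 also: OGG1 cleavage of a quenched duplex DNA oligonucleotide, coupled to APE1 for strand incision, read as fluorescence at 594 nm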
- condition-context: Compound Concentration 10.0 uM, Hit No
- Description: Inhibition of OGG1 by quantifying inhibition of OGG1-mediated cleavage and dissociation of quenched duplex DNA oligonucleotides, measured as fluorescence at 594 nm. To generate a functional strand incision and increase turn-over this assay is coupled to APE1.
Items are presented alongside their recorded inhibition.
Report as a plain number; the unit % is understood.

As a guide, the following entries are already answered.
CN(C)C(=O)Cn1cc(-c2nc(C3(c4ccc(-c5cnc(N)nc5)cc4)CC3)no2)cn1 28.7
CCOc1cc(N2CCC(O)CC2)ccc1Nc1ncc2c(n1)N(C)c1ccccc1C(=O)N2C -8.63
N=C(N)NC(=O)Cc1c(Cl)cccc1Cl -0.992

# context switch: different compound, same inhibition
Task item: Quick one: inhibition of Cc1cccc([C@H](C)c2c[nH]cn2)c1C ?
Reply: -7.75

----------
- target-entity: UniProt:P29372
- Sequence (P29372 whole entry): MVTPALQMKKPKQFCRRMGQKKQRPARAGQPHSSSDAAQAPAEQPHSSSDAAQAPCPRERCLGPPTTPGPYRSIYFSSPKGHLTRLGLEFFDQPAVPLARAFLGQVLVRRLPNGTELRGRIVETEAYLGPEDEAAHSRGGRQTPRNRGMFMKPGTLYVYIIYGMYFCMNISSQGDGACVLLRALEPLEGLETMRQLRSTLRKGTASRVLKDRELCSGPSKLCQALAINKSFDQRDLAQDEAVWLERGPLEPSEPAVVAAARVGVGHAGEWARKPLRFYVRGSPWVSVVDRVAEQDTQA
- condition-context: Compound Concentration 10.0 uM, Hit No
- Description: Inhibition of MPG by quantifying inhibition of MPG-mediated cleavage and dissociation of quenched duplex DNA oligonucleotides, measured as fluorescence at 594 nm. To generate a functional strand incision and increase turn-over this assay is coupled to APE1.
Where a SMILES comes first, the peptide text is derived from it.
Items are presented alongside their recorded inhibition.

As a guide, the following entries are already answered.
molecule	inhibition
CC[C@H](C)[C@H](NC(=O)[C@H](Cc1ccc(O)cc1)NC(=O)[C@@H](NC(=O)[C@H](CCCNC(=N)N)NC(=O)[C@@H](N)CC(=O)O)C(C)C)C(=O)N[C@@H](Cc1cnc[nH]1)C(=O)N[C@H](C)C(=O)O (HELM PEPTIDE1{D.R.V.Y.I.H.[dA]}$$$$V2.0)	-4.39%
CCOC(=O)c1cnn(-c2ccc(NC(=O)C(Cl)=C(Cl)Cl)cc2)c1C(F)(F)F	17.3%
N/C(=N\C(=O)c1nc(Cl)c(N)nc1N)NCc1ccccc1	25.3%
CN[C@@H]1Cc2cccc3[nH]c(=O)n(c23)C1	-1.72%
Cc1c(F)cccc1NC(=O)Nc1ccc(Cl)c(S(=O)(=O)[C@H]2CCCNC2)c1O	11.6%

Task item: # query: inhibition | item CC1CCN(CC[C@H]2CCCN2S(=O)(=O)c2cccc(O)c2)CC1 | system: UniProt:P29372
Reply: -7.22%

Task item: # query: inhibition | item CCNC(=O)[C@H]1O[C@@H](n2cnc3c(N)nc(NCCc4ccc(CCC(=O)O)cc4)nc32)[C@H](O)[C@@H]1O | system: UniProt:P29372
Reply: -2.22%
